# Tested on: FLK-1 receptor
# ASSAY_OVERVIEW: FLK-1 Assay (cellular/catalytic ELISA, VEGF-stimulated phosphotyrosine)
# Type: cell-based
# Set-up: concentration or dose not given beside the values
# CONDITION_INFO: protocol P.110
Recorded Flk Kinase % Inhibition (P.110) values for a group of compounds are listed next.
Provide only the numeric value, understood in %.

Check out these entries, answers already filled in.
# COMPOUND, Flk Kinase % Inhibition (P.110) [%]
data = [
    ("O=C1Nc2ccc(S(=O)(=O)Nc3ccc(C(F)(F)F)cc3)cc2C1=Cc1cccc(OCc2ccccc2)c1", "−119.0"),
    ("COc1ccc(C=C2C(=O)Nc3ccc(S(=O)(=O)Nc4ccc(C(F)(F)F)cc4)cc32)cc1O", "−11.5"),
    ("CNS(=O)(=O)c1ccc2c(c1)C(=Cc1cccc(Oc3ccc(C)cc3)c1)C(=O)N2", 2.8),
    ("Cc1c(Br)ccc2c1C(=CC1COc3ccccc3O1)C(=O)N2 (stereo not shown)", 5.6),
    ("CCCOc1ccc(C=C2C(=O)Nc3c(Br)cc(Br)cc32)cc1", "−7.5"),
]

Enquiry: Which Flk Kinase % Inhibition (P.110) value belongs to CCOc1ccc(C=C2C(=O)Nc3ccc(Br)c(C)c32)cc1 ?
Return: −2.9

Enquiry: Here is the next compound: COc1ccc(Oc2cccc(C=C3C(=O)Nc4c(Br)cc(Br)cc43)c2)cc1
Return: −25.5

Enquiry: Here is the next compound: Cc1c(Br)cc(Br)c2c1C(=Cc1ccc(Cl)cc1)C(=O)N2
Return: 6.1

Enquiry: Here is the next compound: CNS(=O)(=O)c1ccc2c(c1)C(=Cc1cccc(F)c1F)C(=O)N2
Return: 8.9

Enquiry: Here is the next compound: Cc1[nH]c2ccccc2c1C=C1C(=O)Nc2c(Br)cc(Br)c(C)c21
Return: 11.5

Enquiry: Here is the next compound: O=C1Nc2ccc(CCCl)cc2C1=Cc1ccccc1Cl
Return: 0.0

Enquiry: Here is the next compound: O=C1Nc2c(Br)cc(Br)cc2C1=Cc1cccc(F)c1F
Return: −2.0

Enquiry: Here is the next compound: O=C1Nc2ccc(S(=O)(=O)N3CCOCC3)cc2C1=Cc1cccc(Oc2ccc(Cl)c(Cl)c2)c1
Return: 9.0

Enquiry: Here is the next compound: O=C1Nc2ccc(CCCl)cc2C1=Cc1cnc2ccccc2c1
Return: −2.6

Enquiry: Here is the next compound: CCOc1ccc(C=C2C(=O)Nc3ccc(I)cc32)cc1
Return: −3.0

Enquiry: Here is the next compound: O=C1Nc2c(Br)cc(Br)cc2C1=Cc1cccc(O)c1O
Return: 77.3

Enquiry: Here is the next compound: O=C1Nc2c(Br)cc(Br)cc2C1=Cc1cccc(OCc2ccccc2)c1
Return: 2.9

Enquiry: Here is the next compound: O=C1Nc2ccc(S(=O)(=O)N3CCOCC3)cc2C1=Cc1cnc2ccccc2c1
Return: 2.8

Enquiry: Here is the next compound: Cc1c(Br)cc(Br)c2c1C(=Cc1cc(O)c(O)c(O)c1)C(=O)N2
Return: −1.4

* * *

# TARGET: EGFR (Homo sapiens)
# Construct: endogenous in cells; host or cells: A431 cells (lysate, captured with SUMO1 anti-EGFR antibody)
# Sequence (P00533 25-1210): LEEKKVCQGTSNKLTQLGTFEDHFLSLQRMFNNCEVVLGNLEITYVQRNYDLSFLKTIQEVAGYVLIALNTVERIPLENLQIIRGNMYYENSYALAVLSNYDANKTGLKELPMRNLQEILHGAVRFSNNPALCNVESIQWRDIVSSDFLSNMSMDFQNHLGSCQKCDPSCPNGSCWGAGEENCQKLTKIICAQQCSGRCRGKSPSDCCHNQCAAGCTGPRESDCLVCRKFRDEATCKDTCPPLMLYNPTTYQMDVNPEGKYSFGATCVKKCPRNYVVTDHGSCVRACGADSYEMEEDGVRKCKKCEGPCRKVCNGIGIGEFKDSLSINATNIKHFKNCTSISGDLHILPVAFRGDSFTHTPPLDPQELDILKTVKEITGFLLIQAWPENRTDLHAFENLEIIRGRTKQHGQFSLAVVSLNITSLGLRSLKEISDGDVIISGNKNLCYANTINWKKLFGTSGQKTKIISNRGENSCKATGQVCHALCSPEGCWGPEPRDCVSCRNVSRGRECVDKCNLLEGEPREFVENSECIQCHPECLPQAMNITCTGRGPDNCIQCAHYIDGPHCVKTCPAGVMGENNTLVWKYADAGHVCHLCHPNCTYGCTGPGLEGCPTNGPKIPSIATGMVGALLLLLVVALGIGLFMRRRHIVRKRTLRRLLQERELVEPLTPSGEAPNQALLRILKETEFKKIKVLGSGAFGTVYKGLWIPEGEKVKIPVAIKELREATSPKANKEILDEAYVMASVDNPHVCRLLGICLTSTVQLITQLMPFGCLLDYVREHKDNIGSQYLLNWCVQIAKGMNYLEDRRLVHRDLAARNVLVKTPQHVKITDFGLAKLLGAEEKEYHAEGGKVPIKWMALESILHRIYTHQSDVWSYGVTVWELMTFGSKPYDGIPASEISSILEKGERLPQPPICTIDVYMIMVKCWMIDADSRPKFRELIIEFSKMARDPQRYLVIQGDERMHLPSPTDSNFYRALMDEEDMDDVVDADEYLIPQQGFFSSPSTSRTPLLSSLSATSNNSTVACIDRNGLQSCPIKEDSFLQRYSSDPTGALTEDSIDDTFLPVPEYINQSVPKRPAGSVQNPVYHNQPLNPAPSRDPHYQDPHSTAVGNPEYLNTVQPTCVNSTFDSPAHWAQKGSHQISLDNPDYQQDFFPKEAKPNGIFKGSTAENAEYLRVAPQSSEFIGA
# ASSAY_OVERVIEW: Biochemical EGFR Assay
# Set-up: concentration or dose not given beside the values
EXPERIMENTAL_READOUT: Biochem EGFR % Inhibition (P.167) (%)
Provide only the numeric value, understood in %.

Check out these entries, answers already filled in.
# COMPOUND, Biochem EGFR % Inhibition (P.167) [%]
data = [
    ("COc1c(C(C)C)cc(C=C2C(=O)Nc3c(Br)cc(Br)c(C)c32)cc1C(C)C [10732/H03]", 1.4),
    ("O=C1Nc2ccc(I)cc2C1=Cc1cccc(C(F)(F)F)c1 [10735/B05]", 61.6),
    ("Cc1c(Br)cc(Br)c2c1C(=Cc1c(O)cc(O)cc1O)C(=O)N2 [10722/H03]", 27.8),
    ("Cc1c(Br)cc(Br)c2c1C(=Cc1ccc(Cl)s1)C(=O)N2 [10721/H07]", "−20.5"),
    ("CCc1ccc(C=C2C(=O)Nc3ccc(S(=O)(=O)N4CCOCC4)cc32)cc1 [10736/F09]", 6.3),
    ("Cc1c(Br)cc(Br)c2c1C(=Cc1cccc(C(F)(F)F)c1)C(=O)N2 [10735/H05]", "−0.3"),
    ("Cc1c(Br)ccc2c1C(=Cc1ccc(O)c(Br)c1)C(=O)N2 [10734/C09]", 36.2),
    ("Cc1c(Br)cc(Br)c2c1C(=CC(c1cccs1)C(F)(F)F)C(=O)N2 (stereo not drawn) [10732/H02]", 13.0),
]

Below: the item to evaluate.
Enquiry: Which Biochem EGFR % Inhibition (P.167) value belongs to O=C1Nc2ccc(S(=O)(=O)Nc3ccc(C(F)(F)F)cc3)cc2C1=Cc1ccc(-c2ccccc2)cc1 [10735/E11] ?
Return: 10.1
